Each recorded value in this set is attributed to patent US20240360134A1.

Below, each of the molecules is paired with its reported IC50 value.
measured-on: PDGFRβ (Rattus norvegicus (Rat))
Sequence (Q05030 whole entry, looked up): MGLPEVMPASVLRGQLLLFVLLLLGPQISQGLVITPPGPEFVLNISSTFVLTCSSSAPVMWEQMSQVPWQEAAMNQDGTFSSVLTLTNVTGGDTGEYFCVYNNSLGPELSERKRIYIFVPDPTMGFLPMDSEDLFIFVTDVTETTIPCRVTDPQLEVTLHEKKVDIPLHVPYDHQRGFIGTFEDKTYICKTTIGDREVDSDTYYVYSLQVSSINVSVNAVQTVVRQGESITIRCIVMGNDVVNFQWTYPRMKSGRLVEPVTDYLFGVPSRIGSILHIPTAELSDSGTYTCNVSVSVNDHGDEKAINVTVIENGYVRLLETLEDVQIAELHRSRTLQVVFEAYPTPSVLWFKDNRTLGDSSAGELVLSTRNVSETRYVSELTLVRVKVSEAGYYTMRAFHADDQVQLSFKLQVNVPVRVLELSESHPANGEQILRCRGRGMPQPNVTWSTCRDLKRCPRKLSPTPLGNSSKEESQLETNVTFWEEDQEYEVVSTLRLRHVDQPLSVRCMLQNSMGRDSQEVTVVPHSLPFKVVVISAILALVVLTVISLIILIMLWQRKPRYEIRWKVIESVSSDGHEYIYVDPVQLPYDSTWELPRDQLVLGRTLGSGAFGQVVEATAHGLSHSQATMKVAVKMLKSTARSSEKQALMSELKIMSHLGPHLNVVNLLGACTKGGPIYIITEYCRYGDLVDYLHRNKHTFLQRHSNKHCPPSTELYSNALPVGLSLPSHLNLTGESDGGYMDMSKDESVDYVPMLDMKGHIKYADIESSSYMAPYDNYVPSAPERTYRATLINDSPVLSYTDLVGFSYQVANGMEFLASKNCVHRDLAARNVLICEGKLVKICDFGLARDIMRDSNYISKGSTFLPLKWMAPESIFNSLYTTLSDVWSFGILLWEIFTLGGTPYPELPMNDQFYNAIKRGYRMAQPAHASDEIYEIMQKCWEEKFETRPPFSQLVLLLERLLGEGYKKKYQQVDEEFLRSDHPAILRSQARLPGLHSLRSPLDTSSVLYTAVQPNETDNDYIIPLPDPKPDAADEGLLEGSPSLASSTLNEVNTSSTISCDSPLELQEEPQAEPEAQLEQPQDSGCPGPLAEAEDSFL
run-description: PDGFRβ Cellular Assay (PDGFRb P-Y751 HTRF, PDGF-BB stimulated A10 cells)
Type: cell-based
measurement-context: A10 cells, 3 hours compound, 15 ng/mL PDGFbb for 10 minutes; read-out: PDGFR Cellular IC50
Your answer should be a plain number; it is taken to be in nM.

Cc1ncc(C(=O)NCCN2CCCC2(C)C)cc1Nc1nn(C)c2nc(Nc3cnn(C)n3)ncc12 [Example 40] = 14.1
Cc1ncc(NC(=O)CN2CCC[C@@H]2C)cc1Nc1nn(C)c2nc(Nc3ccnn3C)ncc12 [Example 143] = 7.4
Cc1ncc(NC(=O)CN2C[C@@H](C)O[C@@H](C)C2)cc1Nc1nn(C)c2nc(Nc3cnn(C)c3)ncc12 [Example 78] = 8.3
COCCN(CCNC(=O)c1cnc(C)c(Nc2nn(C)c3nc(Nc4cnn(C)c4)ncc23)c1)C1CCCC1 [Example 95] = 9.9

Query: Please report the recorded IC50 for COCCn1cc(Nc2ncc3c(Nc4cc(NC(=O)CN5CC(C)(C)C5)cnc4C)nn(C)c3n2)cn1 [Example 126] .
Result: 6

Query: Follow-up item: Cc1ncc(NC(=O)CN2CC(F)(F)C2)cc1Nc1nn(C)c2nc(Nc3cnn(C)c3)ncc12 [Example 76]
Result: 13.1
